- Tested on: Enterovirus A71
- assay-explanation: Antiviral activity against human enterovirus 71 BrCr infected in human RD cells measured by colorometric based MTS/PMS method
- Type: functional, organism-based
- condition: Enterovirus A
measurement-name: EC50

Problem: What EC50 value was documented for this molecule, OC[C@H]1O[C@@H](n2cnc3c(NCc4cccc(C(F)(F)F)c4)ncnc32)[C@H](O)[C@@H]1O ?
Solution: 68 nM

----------
- assay-explanation: Cytotoxicity against human HeLa cells by MTS assay
- Assay type: toxicity, cell-based
Overview of reported CC50 across a group of molecules:

Please review the entries below; each comes with its answer.
Problem: // returns reported CC50 for input CC(Nc1ncnc2c1ncn2[C@@H]1O[C@H](CO)[C@@H](O)[C@H]1O)c1cccc(Cl)c1 (stereo partly specified)
Solution: > 100 µM

Problem: CC50 for COC(=O)[C@H](CCSC[C@H]1O[C@@H](n2cnc3c(NCc4cccc(Cl)c4)ncnc32)[C@H](O)[C@@H]1O)NC(=O)C(F)(F)F ?
Solution: > 100 µM

Problem: Look up CC50: CSC[C@H]1O[C@@H](n2cnc3c(NCc4cccc(C)c4)ncnc32)[C@H](O)[C@@H]1O
Solution: > 100 µM

Others:
Problem: Name the recorded CC50 for OC[C@H]1O[C@@H](n2ccc3c(NCc4cccc(C(F)(F)F)c4)ncnc32)[C@H](O)[C@@H]1O .
Solution: > 100 µM

Problem: Can you share its CC50? I mean this molecule: Cc1cccc(CNc2ncnc3c2ncn3[C@@H]2O[C@H](CO)[C@@H](O)[C@H]2O)c1
Solution: > 100 µM

Problem: Please look up its CC50: OC[C@H]1O[C@@H](n2cnc3c(NCc4cccc(S(F)(F)(F)(F)F)c4)ncnc32)[C@H](O)[C@@H]1O
Solution: 88.7 µM
